test: protease stability score; higher = more stable; yeast display proteolysis, trypsin and chymotrypsin;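 also: relative to predicted unfolded state with 0 unfolded-like and 1 meaning tenfold more protease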
Below, each of the sequences is paired with its reported protease stability score value.
readout.label: protease stability score

INSERT INTO assay_data (seq_string, readout_label, reported) VALUES
  ('SEDEEEAERFLRMFFELIRTGDERTIERLLDPHVRIDIDGRDIHGRERAQEHVQHWYRHIRIEDDQIKEFHIQGNKVEHHGRRRGSFNGVTYEVTVHETVLKVDGVWYMKEVHVR', 'protease stability score', 0.891),
  ('SEEEEDSLIAWKLYFEIEQTGDEKSLEHYMDPDTRYSQGEFRMHGREYTYHIIFRNRKRLGWDRVEVRLHSYEIINGRIKLDMRVHVNGVDINLLVIAFKFNGKWTIETVRIE', 'protease stability score', 1.36),
  ('NEKEELLRKIMDMLIRHWETGDFEKLMELADPNVRLHYEQGDKEHHHHGREDVAKFIEELLRMLGVDHWHLEKIEIVGEKLHLHGRIHVNGRTIDLRIHWVVVNGVLKSVRIILG', 'protease stability score', 1.14),
  ('SENKRVAVEWVRDFLRALRTGDEDRVRQLADPHVRIDFNGRDHHGRHFLVRMLREIRIHDVRIRDVDVQGDFLITELEIDVEIDGKRDTLRMNIIFEKVDGRWMVSEVQFE', 'protease stability score', 1.5),
  ('SEMHEATEHLLKLWVHIFETGNEKWFNKLADPDYRSRILYGDKELKSHGRENVVEVLYRWLKHFGFDHVRLEDEHIQGNKVHLHFRVQVNGRHHELDLNIDMVNGKIRHVEVILH', 'protease stability score', 1.5),
  ('EEEEKEIKDLLREIFEMIVTGDWRLIRENMDPNARMEVGDKEVHGRDHVIHHLHNLGFKHIKEKDINVQGEKISIHGHVDVNGRSRHVDFIAHKVNGKWLYKSFHFH', 'protease stability score', 0.826);
